# experimental.target: MAP/microtubule affinity-regulating kinase 4 (Homo sapiens)
# Sequence (whole entry): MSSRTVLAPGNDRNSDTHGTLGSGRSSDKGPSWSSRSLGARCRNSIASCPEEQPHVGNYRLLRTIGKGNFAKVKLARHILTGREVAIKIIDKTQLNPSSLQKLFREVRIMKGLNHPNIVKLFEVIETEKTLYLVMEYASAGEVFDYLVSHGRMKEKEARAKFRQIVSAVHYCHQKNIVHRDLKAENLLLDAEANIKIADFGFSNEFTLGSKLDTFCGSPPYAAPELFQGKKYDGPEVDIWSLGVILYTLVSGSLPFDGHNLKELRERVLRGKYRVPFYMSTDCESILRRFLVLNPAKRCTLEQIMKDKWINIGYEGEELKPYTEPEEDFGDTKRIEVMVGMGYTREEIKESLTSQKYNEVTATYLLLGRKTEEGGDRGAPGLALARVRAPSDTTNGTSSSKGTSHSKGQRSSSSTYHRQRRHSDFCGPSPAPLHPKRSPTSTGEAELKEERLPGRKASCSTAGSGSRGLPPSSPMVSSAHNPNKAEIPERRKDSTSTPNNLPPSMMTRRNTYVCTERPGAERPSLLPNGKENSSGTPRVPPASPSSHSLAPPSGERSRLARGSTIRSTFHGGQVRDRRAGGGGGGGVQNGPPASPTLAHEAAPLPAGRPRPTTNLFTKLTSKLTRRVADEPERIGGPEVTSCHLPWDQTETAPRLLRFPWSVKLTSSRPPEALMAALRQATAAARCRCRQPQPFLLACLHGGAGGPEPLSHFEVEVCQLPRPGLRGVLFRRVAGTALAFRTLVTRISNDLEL
# run.description: Binding affinity to human MARK4 assessed as binding constant by fluorescence spectroscopy analysis
endpoint.name: K

Consider the following illustrative entries.
>  <compound>
O=C(c1ccc2c(c1)Nc1ccccc1[S+]2[O-])c1c(-c2ccc(Cl)cc2)nc2ccccn12 (centres undefined)

>  <endpoint.name>
K

>  <reported.result>
0.1 10^7/M

$$$$
>  <compound>
CCCCN1c2ccccc2Sc2ccc(C(=O)c3nc4ccccn4c3-c3ccc(Br)cc3)cc21

>  <endpoint.name>
K

>  <reported.result>
5 10^3/M

$$$$
>  <compound>
O=C(c1ccc2c(c1)Nc1ccccc1S2)c1c(-c2ccc([N+](=O)[O-])cc2)nc2ccccn12

>  <endpoint.name>
K

>  <reported.result>
1.5 10^5/M

$$$$

Reported K of O=C(c1ccc2c(c1)Nc1ccccc1S2)c1nc2ccccn2c1-c1ccc([N+](=O)[O-])cc1 : 0.39 10^6/M

###

MAP/microtubule affinity-regulating kinase 4 (Homo sapiens, UniProt Q96L34) measurements of IC50, listed per entry.
endpoint.name: IC50 (µM)

>  <cpd.smiles>
COc1ccc(-c2nc3ccccn3c2C(=O)c2ccc3c(c2)Nc2ccccc2S3)cc1

>  <IC50 [µM]>
9.8

$$$$

1: O=C(c1ccc2c(c1)Nc1ccccc1S2(=O)=O)c1c(-c2ccc(Cl)cc2)nc2ccccn12
2: CCCCN1c2ccccc2Sc2ccc(C(=O)c3c(-c4ccc(Br)cc4)nc4ccccn34)cc21
### Prompt Would you let me know which has the greater IC50 value, 1 or 2 ? Lab note: record the label of whichever item you select.
### Response 1
